Values were extracted from the supplement of paper PMC6757056.

B1: library; a variant is named by its letters at N, in order (parent)
chain: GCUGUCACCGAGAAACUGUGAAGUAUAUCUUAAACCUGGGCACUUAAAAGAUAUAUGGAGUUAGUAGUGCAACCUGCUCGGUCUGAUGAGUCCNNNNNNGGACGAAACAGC

- Variants of: B1
- protocol_summary: normalized RNA/DNA level with ligand (relative to sTRSVctl = 100) (log10 (% of sTRSVctl)); HEK293T; ligand: cyclic di-GMP (c-di-GMP-II aptamer); ligand concentration (+) RNA-Seq: 1 mM; higher = less ribozyme self-cleavage, higher mRNA level
- test_conditions: reporter: mCherry (pCS4076), ligand present: yes
observation_type: normalized RNA/DNA level with ligand (log10)

>  <mutant_designation>
UCCCAA

>  <value>
1.84

$$$$
>  <mutant_designation>
CCACUC

>  <value>
1.8

$$$$
>  <mutant_designation>
AGCCCU

>  <value>
1.88

$$$$
>  <mutant_designation>
UAAAAC

>  <value>
1.8

$$$$
>  <mutant_designation>
CGAGUA

>  <value>
1.79

$$$$
>  <mutant_designation>
UCAAGA

>  <value>
1.74

$$$$
>  <mutant_designation>
UAUAGA

>  <value>
1.81

$$$$
>  <mutant_designation>
UAACCG

>  <value>
1.81

$$$$
>  <mutant_designation>
UAAAUU

>  <value>
1.77

$$$$
>  <mutant_designation>
UUUCCC

>  <value>
1.94

$$$$
>  <mutant_designation>
CAUGGG

>  <value>
1.84

$$$$
>  <mutant_designation>
ACUGCC

>  <value>
1.88

$$$$
>  <mutant_designation>
UUAGCC

>  <value>
1.83

$$$$
>  <mutant_designation>
GAGAUA

>  <value>
1.76

$$$$
>  <mutant_designation>
AGUUUU

>  <value>
1.89

$$$$
>  <mutant_designation>
AUGUGA

>  <value>
1.65

$$$$
>  <mutant_designation>
GGGUUC

>  <value>
1.89

$$$$
>  <mutant_designation>
ACGCAA

>  <value>
1.64

$$$$
>  <mutant_designation>
CAGUCA

>  <value>
1.52

$$$$
>  <mutant_designation>
CGGGAG

>  <value>
1.79

$$$$
>  <mutant_designation>
AAAGGA

>  <value>
1.47

$$$$
>  <mutant_designation>
ACCAGG

>  <value>
1.77

$$$$
>  <mutant_designation>
GGCCCU

>  <value>
1.94

$$$$
>  <mutant_designation>
ACAGUG

>  <value>
1.68

$$$$
>  <mutant_designation>
AGCUCC

>  <value>
1.88

$$$$
>  <mutant_designation>
ACUCGG

>  <value>
1.76

$$$$
>  <mutant_designation>
CUGCAC

>  <value>
1.88

$$$$
>  <mutant_designation>
CGACAG

>  <value>
1.87

$$$$
>  <mutant_designation>
AGGGCG

>  <value>
1.84

$$$$
>  <mutant_designation>
GGGGGC

>  <value>
1.87

$$$$
>  <mutant_designation>
CGCGGA

>  <value>
1.62

$$$$
>  <mutant_designation>
CGGGGG

>  <value>
1.77

$$$$
>  <mutant_designation>
GUCCAG

>  <value>
1.83

$$$$
>  <mutant_designation>
AUCGCA

>  <value>
1.77

$$$$
>  <mutant_designation>
ACCCCC

>  <value>
1.91

$$$$
>  <mutant_designation>
CGCCGG

>  <value>
1.85

$$$$
>  <mutant_designation>
GAGCUG

>  <value>
1.89

$$$$
>  <mutant_designation>
UGUCUG

>  <value>
1.88

$$$$
>  <mutant_designation>
CUUGAC

>  <value>
1.83

$$$$
>  <mutant_designation>
AUGGCA

>  <value>
1.75

$$$$
>  <mutant_designation>
GUGUCG

>  <value>
1.79

$$$$
>  <mutant_designation>
UUGAUA

>  <value>
1.69

$$$$
>  <mutant_designation>
GUCCUA

>  <value>
1.88

$$$$
>  <mutant_designation>
UACUUU

>  <value>
1.84

$$$$
>  <mutant_designation>
CCCCUA

>  <value>
1.74

$$$$
>  <mutant_designation>
CCCCAU

>  <value>
1.83

$$$$
